- assay system: T1, human GIP receptor (human) (UniProt P48546)
- T1 sequence (looked up): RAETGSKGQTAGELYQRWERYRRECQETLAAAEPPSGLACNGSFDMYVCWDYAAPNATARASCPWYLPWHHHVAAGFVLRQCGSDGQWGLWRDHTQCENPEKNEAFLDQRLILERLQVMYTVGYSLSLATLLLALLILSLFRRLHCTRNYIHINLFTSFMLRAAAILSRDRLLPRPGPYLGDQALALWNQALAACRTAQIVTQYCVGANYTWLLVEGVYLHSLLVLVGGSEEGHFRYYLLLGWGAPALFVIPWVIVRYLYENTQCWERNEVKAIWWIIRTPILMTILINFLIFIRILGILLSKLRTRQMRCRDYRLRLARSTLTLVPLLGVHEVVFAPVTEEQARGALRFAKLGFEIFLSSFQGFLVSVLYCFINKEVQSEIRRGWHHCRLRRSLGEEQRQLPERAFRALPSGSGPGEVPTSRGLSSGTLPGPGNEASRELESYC
- test details: cell-based or functional assay
Under this convention, fulfilled denotes Relative cAMP EC50, nM (0.1% casein) strictly below 0.09 nM and not fulfilled denotes Relative cAMP EC50, nM (0.1% casein) at or above 0.09 nM.

Hello, is Relative cAMP EC50, nM (0.1% casein) of the following binder strictly smaller than 0.09 nM? YXQGTXTSDXXIXLDXKAQXNFIEYLIEGGPSSGEPPPEGE (synthetic construct; SITE 2: note = 2-Aminoisobutyric Acid; SITE 6: note = alpha-methyl-2-fluoro-L-phenylalanine; SITE 10: note = 3-(4-Pyridyl)-L-alanine; SITE 11: note = alpha-methyl-L-serine; SITE 13: note = alpha-methyl-leucine; SITE 16: note = L-ornithine; SITE 17: note = Lysine is chemically mo) [Example 483]
fulfilled

Bench note: check whether YXQGTXTSDYXELLDKKAQXAFIEYLEEGGPSSGAPPPE (synthetic construct; SITE 2: note = 2-Aminoisobutyric Acid; SITE 6: note = alpha-methyl-2-fluoro-L-phenylalanine; SITE 11: note = alpha-methyl-L-serine; SITE 17: note = Lysine is chemically modified through conjugation of the epsilon-amino group of the Lysine side chain with (2-[2-(2-Amino-ethoxy)-e)) [Example 467] shows Relative cAMP EC50, nM (0.1% casein) below 0.09 nM
fulfilled

Find out if reported Relative cAMP EC50, nM (0.1% casein) for YXQGTXTSDXXIXLDXKAQXNFIEXLIEGGPSSGEPEPEEG (synthetic construct; SITE 2: note = 2-Aminoisobutyric Acid; SITE 6: note = alpha-methyl-2-fluoro-L-phenylalanine; SITE 10: note = 3-(4-Pyridyl)-L-alanine; SITE 11: note = alpha-methyl-L-serine; SITE 13: note = alpha-methyl-leucine; SITE 16: note = L-ornithine; SITE 17: note = Lysine is chemically mo) [Example 474] is less than 0.09 nM
fulfilled

Strictly below 0.09 nM in Relative cAMP EC50, nM (0.1% casein)? YXQGTFTSDFSXXLDKKAQXAFIEYLLEXGPSSGEPPPSGS (Aib, Orn, αMeL, acylated K, C-terminal amide; synthetic construct; SITE 2: note = 2-Aminoisobutyric Acid; SITE 12: note = L-ornithine; SITE 13: note = alpha-methyl-leucine; SITE 17: note = Lysine is chemically modified through conjugation of the epsilon-amino group of the Lysine side chain with (2-[2-(2-Amino-ethoxy)-ethoxy]-acetyl)2-(gamma-Glu)) [Example 166]
not fulfilled

Please let me know if YXQGTFTSDFSXXLDKKAQXAFIEYLLEXGHSSGAPPPSGS ((AEEA)2-γGlu-C18 diacid on Lys; non-natural residues; amide; synthetic construct; SITE 2: note = 2-Aminoisobutyric Acid; SITE 12: note = L-ornithine; SITE 13: note = alpha-methyl-leucine; SITE 17: note = Lysine is chemically modified through conjugation of the epsilon-amino group of the Lysine side chain with (2-[2-(2-Amino-ethoxy)-ethoxy]-acetyl)2-(gamma-Glu)) [Example 181] shows Relative cAMP EC50, nM (0.1% casein) below 0.09 nM.
not fulfilled
